Where do these numbers come from? They come from the supplement of paper PMC10307832.

System: NCI-H1666
Test: relative viability (nuclei count vs DMSO), 5 days (fraction); higher = more cells survive
Conditions: first compound 0.4 µM
value type: relative viability
No unit in the answer, please; the number alone is enough.

Recorded relative viability, per entry:
compound | numeric result
Cc1sc2c(c1C)C(c1ccc(Cl)cc1)=N[C@@H](CC(=O)OC(C)(C)C)c1nnc(C)n1-2 [JQ1] + COc1cccc2cc(-c3nc([C@H]4CC[C@H](C(=O)O)CC4)n4ncnc(N)c34)[nH]c12 [OSI-027] (partner 0.5 µM) | 0.726
Cc1sc2c(c1C)C(c1ccc(Cl)cc1)=N[C@@H](CC(=O)OC(C)(C)C)c1nnc(C)n1-2 [JQ1] + CC(C)C[C@H](NC(=O)[C@H](Cc1ccccc1)NC(=O)c1cnccn1)B(O)O [Bortezomib] (partner 0.002 µM) | 0.543

Exam item: Query (compound): Cc1sc2c(c1C)C(c1ccc(Cl)cc1)=N[C@@H](CC(=O)OC(C)(C)C)c1nnc(C)n1-2 [JQ1] + Cc1nc(NC(=O)N2CCC[C@H]2C(N)=O)sc1-c1ccnc(C(C)(C)C(F)(F)F)c1 [Alpelisib] (partner 2 µM) ; field requested: relative viability
Marked response: 0.696

Exam item: Consider next the compound Cc1sc2c(c1C)C(c1ccc(Cl)cc1)=N[C@@H](CC(=O)OC(C)(C)C)c1nnc(C)n1-2 [JQ1] + CS(=O)(=O)N1CCN(Cc2cc3nc(-c4cccc5[nH]ncc45)nc(N4CCOCC4)c3s2)CC1 [Pictilisib] (partner 1 µM) in the same way.
Marked response: 0.414

* * *

Test system: LCLC-103H
Experiment: relative viability (nuclei count vs DMSO), 5 days (fraction); higher = more cells survive
Conditions: first compound 0.253 µM
value type: relative viability
No unit in the answer, please; the number alone is enough.

Recorded relative viability, per entry:
compound | system tested | value type | numeric result
O=c1[nH]c2ccccc2n1C1CCN(CCCC(c2ccc(F)cc2)c2ccc(F)cc2)CC1 [Pimozide] + COc1cc2c(Oc3ccc(NC(=O)C4(C(=O)Nc5ccc(F)cc5)CC4)cc3F)ccnc2cc1OCCCN1CCOCC1 [Foretinib] (partner 0.25 µM) | LCLC-103H | relative viability | 0.716
Cc1cnc(-c2cnc(NCCNc3ccc(C#N)cn3)nc2-c2ccc(Cl)cc2Cl)[nH]1 + O=C(CCCCCCC(=O)Nc1ccccc1)NO [Vorinostat] (partner 1 µM) | LCLC-103H | relative viability | 0.541
O=c1[nH]c2ccccc2n1C1CCN(CCCC(c2ccc(F)cc2)c2ccc(F)cc2)CC1 [Pimozide] + Nc1ncn([C@H]2C[C@H](O)[C@@H](CO)O2)c(=O)n1 [Decitabine] (partner 2 µM) | LCLC-103H | relative viability | 0.712

Let us move to another entry and its relative viability.
Exam item: Query (compound): O=c1[nH]c2ccccc2n1C1CCN(CCCC(c2ccc(F)cc2)c2ccc(F)cc2)CC1 [Pimozide] + CS(=O)(=O)N1CCN(Cc2cc3nc(-c4cccc5[nH]ncc45)nc(N4CCOCC4)c3s2)CC1 [Pictilisib] (partner 1 µM) ; field requested: relative viability
Marked response: 0.513

* * *

Tested on: NCI-H647
Assay: relative viability (nuclei count vs DMSO), 5 days (fraction); higher = more cells survive
Conditions: first compound 0.002 µM
value type: relative viability
No unit in the answer, please; the number alone is enough.

Exam item: Lab note: need relative viability with NCI-H647 for entry CC(=O)O[C@@]12CO[C@@H]1C[C@H](O)[C@@]1(C)C(=O)[C@H](O)C3=C(C)[C@@H](OC(=O)[C@H](O)[C@@H](NC(=O)OC(C)(C)C)c4ccccc4)C[C@@](O)([C@@H](OC(=O)c4ccccc4)[C@H]21)C3(C)C [Docetaxel] + O=C(CCCCCCC(=O)Nc1ccccc1)NO [Vorinostat] (partner 1 µM) , please look it up.
Marked response: 0.196

* * *

Tested on: A-427
Test: relative viability (nuclei count vs DMSO), 5 days (fraction); higher = more cells survive
Conditions: first compound 0.8 µM
Let's look at some compounds and their measured relative viability.
No unit in the answer, please; the number alone is enough.

Recorded relative viability, per entry:
compound | numeric result
O=c1[nH]c2ccccc2n1C1CCN(CCCC(c2ccc(F)cc2)c2ccc(F)cc2)CC1 [Pimozide] + C[C@]1(O)C[C@@H](c2nc(-c3ccc4ccc(-c5ccccc5)nc4c3)c3c(N)nccn32)C1 [Linsitinib] (partner 1 µM) | 1.13
O=c1[nH]c2ccccc2n1C1CCN(CCCC(c2ccc(F)cc2)c2ccc(F)cc2)CC1 [Pimozide] + CC(=O)c1c(C)c2cnc(Nc3ccc(N4CCNCC4)cn3)nc2n(C2CCCC2)c1=O [Palbociclib] (partner 0.5 µM) | 0.462
O=c1[nH]c2ccccc2n1C1CCN(CCCC(c2ccc(F)cc2)c2ccc(F)cc2)CC1 [Pimozide] + O=C(CCCCCCC(=O)Nc1ccccc1)NO [Vorinostat] (partner 1 µM) | 0.775
O=c1[nH]c2ccccc2n1C1CCN(CCCC(c2ccc(F)cc2)c2ccc(F)cc2)CC1 [Pimozide] + CS(=O)(=O)N1CCN(Cc2cc3nc(-c4cccc5[nH]ncc45)nc(N4CCOCC4)c3s2)CC1 [Pictilisib] (partner 1 µM) | 0.538
Cc1cnc(-c2cnc(NCCNc3ccc(C#N)cn3)nc2-c2ccc(Cl)cc2Cl)[nH]1 + CC(=O)c1c(C)c2cnc(Nc3ccc(N4CCNCC4)cn3)nc2n(C2CCCC2)c1=O [Palbociclib] (partner 0.5 µM) | 0.567
O=c1[nH]c2ccccc2n1C1CCN(CCCC(c2ccc(F)cc2)c2ccc(F)cc2)CC1 [Pimozide] + CC(C)C[C@H](NC(=O)[C@H](Cc1ccccc1)NC(=O)c1cnccn1)B(O)O [Bortezomib] (partner 0.002 µM) | 0.965

Exam item: Query (compound): O=c1[nH]c2ccccc2n1C1CCN(CCCC(c2ccc(F)cc2)c2ccc(F)cc2)CC1 [Pimozide] + C[C@@H](Oc1cc(-c2cnn(C3CCNCC3)c2)cnc1N)c1c(Cl)ccc(F)c1Cl [Crizotinib] (partner 1 µM) ; field requested: relative viability
Marked response: 0.896

Exam item: Consider next the compound Cc1cnc(-c2cnc(NCCNc3ccc(C#N)cn3)nc2-c2ccc(Cl)cc2Cl)[nH]1 + CS(=O)(=O)N1CCN(Cc2cc3nc(-c4cccc5[nH]ncc45)nc(N4CCOCC4)c3s2)CC1 [Pictilisib] (partner 1 µM) in the same way.
Marked response: 0.696

Exam item: Consider next the compound O=c1[nH]c2ccccc2n1C1CCN(CCCC(c2ccc(F)cc2)c2ccc(F)cc2)CC1 [Pimozide] + NC(=O)Nc1cc(-c2cccc(F)c2)sc1C(=O)N[C@H]1CCCNC1 [AZD7762] (partner 0.2 µM) in the same way.
Marked response: 0.764

* * *

Test system: NCI-H2347
Assay: relative viability (nuclei count vs DMSO), 5 days (fraction); higher = more cells survive
Details: first compound 0.4 µM
value type: relative viability
No unit in the answer, please; the number alone is enough.

compound | relative viability
Cc1sc2c(c1C)C(c1ccc(Cl)cc1)=N[C@@H](CC(=O)OC(C)(C)C)c1nnc(C)n1-2 [JQ1] + Cc1nc(NC(=O)N2CCC[C@H]2C(N)=O)sc1-c1ccnc(C(C)(C)C(F)(F)F)c1 [Alpelisib] (partner 2 µM) | 0.848
Cc1sc2c(c1C)C(c1ccc(Cl)cc1)=N[C@@H](CC(=O)OC(C)(C)C)c1nnc(C)n1-2 [JQ1] + C[C@@H](Oc1cc(-c2cnn(C3CCNCC3)c2)cnc1N)c1c(Cl)ccc(F)c1Cl [Crizotinib] (partner 1 µM) | 0.646
Cc1sc2c(c1C)C(c1ccc(Cl)cc1)=N[C@@H](CC(=O)OC(C)(C)C)c1nnc(C)n1-2 [JQ1] + Nc1nc2[nH]cc(CCc3ccc(C(=O)N[C@@H](CCC(=O)O)C(=O)O)cc3)c2c(=O)[nH]1 [Pemetrexed] (partner 0.2 µM) | 0.403
Cc1sc2c(c1C)C(c1ccc(Cl)cc1)=N[C@@H](CC(=O)OC(C)(C)C)c1nnc(C)n1-2 [JQ1] + CS(=O)(=O)CCNCc1ccc(-c2ccc3ncnc(Nc4ccc(OCc5cccc(F)c5)c(Cl)c4)c3c2)o1 [Lapatinib] (partner 2 µM) | 0.831

Let us move to another entry and its relative viability.
Exam item: Query (compound): Cc1sc2c(c1C)C(c1ccc(Cl)cc1)=N[C@@H](CC(=O)OC(C)(C)C)c1nnc(C)n1-2 [JQ1] + O=C(CCCCCCC(=O)Nc1ccccc1)NO [Vorinostat] (partner 1 µM) ; field requested: relative viability
Marked response: 0.463

* * *

Let's look at some compounds and their measured relative viability.
System: HCC-827
Experiment: relative viability (nuclei count vs DMSO), 5 days (fraction); higher = more cells survive
Conditions: first compound 1.265 µM
No unit in the answer, please; the number alone is enough.

Exam item: Query (compound): Cc1sc2c(c1C)C(c1ccc(Cl)cc1)=N[C@@H](CC(=O)OC(C)(C)C)c1nnc(C)n1-2 [JQ1] + CC(=O)c1c(C)c2cnc(Nc3ccc(N4CCNCC4)cn3)nc2n(C2CCCC2)c1=O [Palbociclib] (partner 0.5 µM) ; field requested: relative viability
Marked response: 0.279
